Molecular target: (recombinant) catalytic domain of human Bub1 (amino acids 704-1085) (Homo sapiens (Human), UniProt O43683)
Sequence (O43683 704-1085): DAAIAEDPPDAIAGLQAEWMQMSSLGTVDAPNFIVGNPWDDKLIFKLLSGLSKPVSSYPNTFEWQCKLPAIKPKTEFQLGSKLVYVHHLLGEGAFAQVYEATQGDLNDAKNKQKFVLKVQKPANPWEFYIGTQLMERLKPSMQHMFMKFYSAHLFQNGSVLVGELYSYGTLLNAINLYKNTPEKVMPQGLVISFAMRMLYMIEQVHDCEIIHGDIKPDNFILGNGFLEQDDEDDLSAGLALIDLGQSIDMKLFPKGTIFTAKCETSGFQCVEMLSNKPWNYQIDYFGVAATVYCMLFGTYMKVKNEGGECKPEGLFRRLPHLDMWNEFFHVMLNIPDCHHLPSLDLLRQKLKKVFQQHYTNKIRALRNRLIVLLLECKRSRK
Test: Bub1 kinase assay (TR-FRET)
Conditions: ATP 10 μM final, peptide substrate 1 μM final, 60 min at 22° C., read-out: Biological Assay: Bub1 kinase assay median IC50
pIC50: −log10 of the molar value.
ENDPOINT: pIC50

Worked cases, answers included:
## Input Returns the measured pIC50 for the input compound. Input: O=C(COc1cccc(F)c1)Nc1cc(-c2[nH]c3c(c2Nc2ccccc2)C(=O)CCC3)ccn1
## Output 7.50

## Input Now the same for CC1(C)CC(=O)c2c([nH]c(-c3ccnc(NC(=O)c4cc(F)cc(F)c4)c3)c2Nc2ccccc2)C1
## Output 7.63

## Input Same lookup for O=C1CCCc2[nH]c(-c3ccncc3Br)c(Nc3ccccc3)c21 , please.
## Output 7.44

## Input Cool, now O=C(Nc1cc(-c2[nH]c3c(c2Nc2ccccc2)C(=O)CCC3)ccn1)c1cccnc1
## Output 7.90

## Input Now the same for CC(=O)Nc1cc(-c2[nH]c3c(c2Nc2cccc(F)c2)C(=O)CCC3)ccn1
## Output 7.82

[a] CC1CC1C(=O)Nc1cc(-c2[nH]c3c(c2Nc2ccccc2)C(=O)CCC3)ccn1 (centres unmarked)
[b] CN[C@H](C)C(=O)Nc1cc(-c2[nH]c3c(c2Nc2ccccc2)C(=O)CCC3)ccn1
[c] CCn1c2c(c(Nc3ccccc3)c1-c1ccncc1)C(=O)CC(C)(C)C2
## Input # desc sort on pIC50 across 3 compounds Reply with the item labels sorted in the order that was asked for.
## Output a, c, b
(a: 7.88, c: 7.49, b: 6.32)

[1] O=C(Nc1cc(-c2[nH]c3c(c2Nc2ccccc2)C(=O)CCC3)ccn1)c1ccccc1
[2] CC1(C)CC(=O)c2c([nH]c(-c3ccnnc3)c2Nc2ccccc2)C1
[3] CC1(C)CC(=O)c2c([nH]c(-c3ccnc4[nH]ccc34)c2Nc2ccccc2)C1
[4] CC1(C)CC(=O)c2c([nH]c(-c3ccncc3)c2Nc2cncc3ccccc23)C1
## Input Rank the 4 compounds: largest pIC50 first, smallest last. Give the labels in the order requested.
## Output 1, 3, 2, 4

[I] COc1ccc(Nc2c(-c3ccncc3)[nH]c3c2C(=O)CC(C)(C)C3)cc1
[II] CN1C(=O)CCC1C(=O)Nc1cc(-c2[nH]c3c(c2Nc2ccccc2)C(=O)CCC3)ccn1 (centres unmarked)
[III] CC(C)(C)n1cc(C(=O)Nc2cc(-c3[nH]c4c(c3Nc3ccccc3)C(=O)CCC4)ccn2)cn1
## Input Arrange these compounds by their pIC50, starting with the largest number. List the labels, following the order given in the request.
## Output III, II, I

[1] O=C1CCC(O)c2[nH]c(-c3ccncc3)c(Nc3ccccc3)c21 (centres unmarked)
[2] O=C1CC2(CC2)Cc2[nH]c(-c3ccnc(F)c3)c(Nc3ccccc3)c21
## Input Select one: 1 or 2 . Criterion: greater recorded pIC50. Let me know the label of the one you choose.
## Output 2
(2: 8.14, 1: 7.40)

###

Target: (recombinant) catalytic domain of human Bub1 (amino acids 704-1085) (Homo sapiens (Human))
Test: Bub1 kinase assay (TR-FRET)
Type: biochemical
Settings: ATP 10 μM final, peptide substrate 1 μM final, 60 min at 22° C., read-out: Biological Assay: Bub1 kinase assay median IC50
Protocol: Examples were tested in selected biological assays one or more times. When tested more than once, data are reported as either average values or as median values, wherein • the average value, also referred to as the arithmetic mean value, represents the sum of the values obtained divided by the number of times tested, and • the median value represents the middle number of the group of values when ranked in ascending or descending order. […]
pIC50: −log10 of the molar value.
ENDPOINT: pIC50

Recorded results for 3 compounds are shown here.
## Input // query pIC50 value for entry CC(C)(O)C(=O)Nc1cc(-c2[nH]c3c(c2Nc2ccccc2)C(=O)CCC3)ccn1
## Output 6.55

## Input And O=C1CCCc2[nH]c(-c3ccnc(C(F)F)c3)c(Nc3ccccc3)c21 ?
## Output 6.45

## Input Ok, now O=C1CCCc2[nH]c(-c3ccnc(NC(=O)[C@H]4C[C@H]4F)c3)c(Nc3ccccc3)c21
## Output 7.63

[P] CC1(C)CC(=O)c2c([nH]c(-c3ccncc3OCCO)c2Nc2ccccc2)C1
[Q] COC(=O)Nc1cc(-c2[nH]c3c(c2Nc2cccc(F)c2)C(=O)CCC3)ccn1
## Input Could you check which of P and Q has a smaller value for pIC50? Give the label under which the chosen entry appears.
## Output Q

###

Molecular target: (recombinant) catalytic domain of human Bub1 (amino acids 704-1085) (Homo sapiens (Human))
Assay: Bub1 kinase assay (TR-FRET)
Conditions: ATP 10 μM final, peptide substrate 1 μM final, 60 min at 22° C., read-out: Biological Assay: Bub1 kinase assay median IC50
pIC50: −log10 of the molar value.
ENDPOINT: pIC50

## Input Requested read-out: pIC50. Entry: CC1(C)CC(=O)c2c([nH]c(-c3ccnc(F)c3)c2Nc2cccc(F)c2)C1
## Output 7.69

## Input Okay, and Cn1nnnc1Nc1cc(-c2[nH]c3c(c2Nc2ccccc2)C(=O)CCC3)ccn1 ?
## Output 7.73

## Input Cool, now COc1ccc(OC)c(Nc2c(-c3ccncc3)[nH]c3c2C(=O)CC(C)(C)C3)c1
## Output 5.37

## Input Let us now turn to O=C1CCCc2[nH]c(-c3ccnc(NC(=O)C4CC4)c3)c(Nc3cccc(F)c3)c21
## Output 7.86

## Input Query CCC(O)c1cccc(Nc2c(-c3ccncc3)[nH]c3c2C(=O)CC(C)(C)C3)c1 (centres unmarked) next
## Output 5.52

## Input Again, but for O=C1CC(CF)Cc2[nH]c(-c3ccncc3)c(Nc3ccccc3)c21 (centres unmarked)
## Output 8.16

[I] CC1(C)CC(=O)c2c([nH]c(-c3ccnc(NC(=O)C4CC4(F)F)c3)c2Nc2ccccc2)C1 (centres unmarked)
[II] CC1(C)CC(=O)c2c([nH]c(-c3ccnc4[nH]cnc34)c2Nc2ccccc2)C1
[III] COC(=O)C[n+]1ccc(-c2[nH]c3c(c2Nc2ccccc2)C(=O)CC(C)(C)C3)cc1
## Input Returns the items ordered by pIC50, from maximum to minimum. Give the labels in the order specified.
## Output I, II, III
(I: 8.18, II: 7.88, III: 6.04)

[A] Cc1nnc(COCC(=O)Nc2cc(-c3[nH]c4c(c3Nc3ccccc3)C(=O)CCC4)ccn2)o1
[B] CC1(C)CC(=O)c2c([nH]c(-c3ccncc3C#N)c2Nc2cccc(F)c2)C1
## Input A or B : whose pIC50 is greater? Return value: the label identifying the chosen record.
## Output A

[1] CC1(C)CC(=O)c2c(Nc3ccccc3)c(-c3ccncc3)n(CC(F)F)c2C1
[2] O=C(Nc1cc(-c2[nH]c3c(c2Nc2ccccc2)C(=O)CCC3)ccn1)c1ccncc1
[3] CC1(C)CC(=O)c2c([nH]c(-c3cc(N)ncn3)c2Nc2ccccc2)C1
## Input Put these in order: smallest pIC50 first, largest last. Labels, requested order.
## Output 3, 1, 2
(3: 6.61, 1: 7.30, 2: 7.64)

###

Target: (recombinant) catalytic domain of human Bub1 (amino acids 704-1085) (Homo sapiens (Human), UniProt O43683)
Assay: Bub1 kinase assay (TR-FRET)
Settings: ATP 10 μM final, peptide substrate 1 μM final, 60 min at 22° C., read-out: Biological Assay: Bub1 kinase assay median IC50
pIC50: −log10 of the molar value.
ENDPOINT: pIC50

Reference set, count: 8
## Input Name the recorded pIC50 for O=C1CC(c2ccccc2)Cc2[nH]c(-c3ccncc3)c(Nc3ccccc3)c21 (stereo not drawn) .
## Output 7.66

## Input Item: COc1cnccc1-c1[nH]c2c(c1Nc1ccccc1)C(=O)CCC2
## Output 7.36

## Input Another compound: CNCCC(=O)Nc1cc(-c2[nH]c3c(c2Nc2ccccc2)C(=O)CCC3)ccn1
## Output 6.32

## Input What do you get for Nc1cc(-c2[nH]c3c(c2Nc2ccccc2)C(=O)CC2(CC2)C3)ccn1 ?
## Output 8.01

## Input Next entry: COc1cc(F)ccc1Nc1c(-c2ccncc2)[nH]c2c1C(=O)CC(C)(C)C2
## Output 6.49

## Input Could you do the same for CC1(C)CC(=O)c2c([nH]c(-c3ccncc3)c2Nc2ccc3sccc3c2)C1 , please?
## Output 7.12

## Input Then O=C1CCCc2[nH]c(-c3ccnc(NCCc4ccccc4)c3)c(Nc3ccccc3)c21 ?
## Output 5.48

## Input // repeat for CN(C)CC(=O)Nc1cc(-c2[nH]c3c(c2Nc2ccccc2)C(=O)CCC3)ccn1 and report
## Output 6.68

[a] Cn1nccc1-c1cccc(Nc2c(-c3ccncc3)[nH]c3c2C(=O)CC(C)(C)C3)c1
[b] CC1(C)CC(=O)c2c([nH]c(-c3ccncc3O)c2Nc2ccccc2)C1
## Input Hi, I'm comparing two records. Which one has the lower pIC50, a or b ? // respond with label for picked entry
## Output a

[I] O=C1CCCc2[nH]c(-c3ccnc(Nc4cccc(F)c4)c3)c(Nc3ccccc3)c21
[II] O=C1CCCc2[nH]c(-c3ccnc(NCCCCc4ccccc4)c3)c(Nc3ccccc3)c21
[III] CC(=O)Nc1cc(-c2[nH]c3c(c2Nc2ccccc2)C(=O)CC2(CC2)C3)ccn1
[IV] Cn1c2c(c(Nc3ccccc3)c1-c1ccncc1)C(=O)CC(C)(C)C2
## Input Form: Sort by [pIC50] Order [ ascending ] In plain terms: list the labels in the order you were asked to.
## Output II, I, IV, III

[P] CC1(C)CC(=O)c2c([nH]c(-c3ccncc3OC(C)(C)C)c2Nc2ccccc2)C1
[Q] COc1ccc(Nc2c(-c3ccncc3)[nH]c3c2C(=O)CC(C)(C)C3)c(OC)c1
[R] O=C(Nc1cc(-c2[nH]c3c(c2Nc2ccccc2)C(=O)CCC3)ccn1)c1cocn1
[S] CN(CCC(=O)Nc1cc(-c2[nH]c3c(c2Nc2ccccc2)C(=O)CCC3)ccn1)C(=O)OC(C)(C)C
[T] CCn1c2c(c(Nc3ccccc3)c1-c1ccncc1Cl)C(=O)CCC2
## Input Task field, ranking: reported pIC50, descending order. To answer, write out the labels according to the requested order.
## Output R, S, Q, P, T
(R: 7.90, S: 7.13, Q: 6.78, P: 6.22, T: 5.25)

[a] COC(C)c1cccc(Nc2c(-c3ccncc3)[nH]c3c2C(=O)CC(C)(C)C3)c1 (stereo not drawn)
[b] CNC(=O)c1cccc(Nc2c(-c3ccncc3)[nH]c3c2C(=O)CC(C)(C)C3)c1
## Input Returns: the label, a or b , whose recorded pIC50 is the lower number. Returns: label corresponding to the selected item.
## Output b
(b: 5.66, a: 6.13)
